Data provenance: the supplement of paper PMC6757056

B1: library; a variant is named by its letters at N, in order (parent)
chain: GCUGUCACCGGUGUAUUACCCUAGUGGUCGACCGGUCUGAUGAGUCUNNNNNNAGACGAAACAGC

Variants of: B1
Assay: normalized RNA/DNA level without ligand (relative to sTRSVctl = 100) (log10 (% of sTRSVctl)); ligand: hypoxanthine (xanthine aptamer); higher = less ribozyme self-cleavage, higher mRNA level
Conditions: HEK293T, reporter: mCherry (pCS4076), ligand present: no
Each entry below carries its reported normalized RNA/DNA level without ligand (log10).
Respond with the number and no other words.

CUCUUG    1.87

So for `AUCGGA` , the logged normalized RNA/DNA level without ligand (log10) turned out to be 1.74

So for `AGAUCG` , the logged normalized RNA/DNA level without ligand (log10) turned out to be 1.55

So for `AUGAGU` , the logged normalized RNA/DNA level without ligand (log10) turned out to be 1.44

So for `AUCCUU` , the logged normalized RNA/DNA level without ligand (log10) turned out to be 1.91

So for `CCACCU` , the logged normalized RNA/DNA level without ligand (log10) turned out to be 1.93

So for `CAGACG` , the logged normalized RNA/DNA level without ligand (log10) turned out to be 1.8
